Hello, the source for this data is patent US11230527B2, in case you need it.

Experiment: Solubility estimation
Format: physicochemical
Conditions: IPA, organic solvent or mixture, thermodynamic from solid, IPA; read-out: Solubility
property_name: solubility

So what does the record say about solubility for O=C(Cc1ccc(-c2ccc(OCCN3CCOCC3)cc2)cn1)NCc1ccccc1 [Form C] ?
1300 to 1390 µg/mL

* * *

Assay: Solubility estimation
Type: physicochemical
Conditions: ACN, organic solvent or mixture, thermodynamic from solid, ACN; read-out: Solubility
Experimental: Solubility of the solid forms of the present application in a variety of solvents is measured. […] The approximate solubility is then calculated. Solubility of the solid forms of the present application in a variety of solvents was measured according to the following procedures. […] The volumes of solvent (V1 and V2) were recorded, and approximate solubility was calculated.
property_name: solubility

So what does the record say about solubility for O=C(Cc1ccc(-c2ccc(OCCN3CCOCC3)cc2)cn1)NCc1ccccc1 [Form C] ?
4430 to 5540 µg/mL

* * *

Assay: Solubility estimation
Assay type: physicochemical
Conditions: water, thermodynamic from solid, aqueous solution (e.g., water), room temperature; read-out: aqueous solubility (dissolved completely)
Procedure: Solubility of the solid forms of the present application in a variety of solvents is measured. […] The approximate solubility is then calculated. Solubility of the solid forms of the present application in a variety of solvents was measured according to the following procedures. […] The volumes of solvent (V1 and V2) were recorded, and approximate solubility was calculated.
property_name: solubility

So what does the record say about solubility for O=C(Cc1ccc(-c2ccc(OCCN3CCOCC3)cc2)cn1)NCc1ccccc1 [Form A] ?
> 20 mg/mL

* * *

Experiment: Solubility estimation
Format: physicochemical
Conditions: toluene, organic solvent or mixture, thermodynamic from solid, toluene; read-out: Solubility
Procedure: Solubility of the solid forms of the present application in a variety of solvents is measured. […] The approximate solubility is then calculated. Solubility of the solid forms of the present application in a variety of solvents was measured according to the following procedures. […] The volumes of solvent (V1 and V2) were recorded, and approximate solubility was calculated.
property_name: solubility

So what does the record say about solubility for O=C(Cc1ccc(-c2ccc(OCCN3CCOCC3)cc2)cn1)NCc1ccccc1 [Form C] ?
1510 to 1610 µg/mL

* * *

Assay: Solubility estimation
Assay type: physicochemical
Settings: EtOH, organic solvent or mixture, thermodynamic from solid, EtOH; read-out: Solubility
property_name: solubility

So what does the record say about solubility for O=C(Cc1ccc(-c2ccc(OCCN3CCOCC3)cc2)cn1)NCc1ccccc1 [Form C] ?
5140 to 6420 µg/mL

* * *

Experiment: Solubility estimation
Format: physicochemical
Details: 2-MeTHF, organic solvent or mixture, thermodynamic from solid, 2-MeTHF; read-out: Solubility
property_name: solubility

So what does the record say about solubility for O=C(Cc1ccc(-c2ccc(OCCN3CCOCC3)cc2)cn1)NCc1ccccc1 [Form C] ?
5100 to 6380 µg/mL

* * *

Assay: Solubility estimation
Type: physicochemical
Settings: organic solvent or mixture, thermodynamic from solid; methanol, ethanol, isopropanol, acetone, MIBK, ethyl acetate, isopropyl acetate, tetrahydrofuran, 2-Me-THF, 1,4-dioxane, acetonitrile, dichloromethane, chloroform, toluene; room temperature and 50° C.; read-out: Solubility
property_name: solubility

So what does the record say about solubility for O=C(Cc1ccc(-c2ccc(OCCN3CCOCC3)cc2)cn1)NCc1ccccc1 [Form C] ?
> 1 mg/mL

* * *

Assay: Solubility estimation
Type: physicochemical
Settings: MTBE, organic solvent or mixture, thermodynamic from solid, MTBE; read-out: Solubility
property_name: solubility

So what does the record say about solubility for O=C(Cc1ccc(-c2ccc(OCCN3CCOCC3)cc2)cn1)NCc1ccccc1 [Form C] ?
< 1000 µg/mL
